molecular target: CCR8-NT.MBP (CCR8 N-terminus peptide aa 1-35 fused with maltose binding protein); experiment: ForteBio Octet, antibody captured on AHC biosensors, CCR8-NT.MBP as analyte
Reported property: Octet Response (nm)
Enter your answer as a number in nm; do not include the unit.

# input binder: 7B16-H3.001 (CDR H3 swapped mutant of 7-B16) (antibody, V domains shown, also called CDR swapped variant H3) VH: EVQLVESGGGLVQPKGSLKLSCAASGFTFNTYAMNWVRQAPGKGLEWVARIRSKSNNYATYYADSVKDRFTISRDDSQSMLYLQMNNLKTEDTAMYYCTRYYYYYGMDVWGAGTTVTVSS VL: DIVMTQAEPSVPVTPGESISISCRSSKSLLHSNGNTYLYWFLQRPGQSPQLLIYRMSNLASGVPDRFSGSGSGTAFTLRISRVEAEDVGVYYCMQHLEYPFTFGGGTKLEIKR ; wanted: its Octet Response (nm)
0.0093
